Experiment: 14-day daily oral repeated-dose DRF study in cynomolgus monkeys (mesylate salt)
Format: in vivo
Conditions: both sexes, cynomolgus monkey, plasma, po, 8 mg/kg, 8 mg/kg (Gr. 3), Day 1; read-out: T1/2 (converted)
Experimental readout: half-life (h)

molecule="CC(C)C[C@@H]1NCCN([C@@H](CC(C)C)C(=O)N2CCC3(C[C@@H]2C)OCC(CN2CCCC2)CO3)C1=O (stereo partly shown) [Compound 1]" value_observed=4.6

###

Test: Single dose oral and intravenous PK in CD-1 mice (mesylate salt), blood
Type: in vivo
Design: unit not given here
Conditions: male, CD-1, mouse, whole blood; intravenous 50 mg/kg
Experimental readout: AUC(0-inf)

compound="CC(C)C[C@@H]1NCCN([C@@H](CC(C)C)C(=O)N2CCC3(C[C@@H]2C)OCC(CN2CCCC2)CO3)C1=O (stereo partly shown)" value_observed=13

###

Assay: 14-day daily oral repeated-dose DRF study in cynomolgus monkeys (mesylate salt)
Assay type: in vivo
Details: both sexes, cynomolgus monkey, plasma, po, 12 mg/kg, 12 mg/kg (Gr. 2), Day 7
Experimental readout: AUC(0-t)

molecule="CC(C)C[C@@H]1NCCN([C@@H](CC(C)C)C(=O)N2CCC3(C[C@@H]2C)OCC(CN2CCCC2)CO3)C1=O (stereo partly shown) [Compound 1]" value_observed="214 ng·h/mL"

###

Test: Single dose intravenous and oral PK in Beagle dogs (citrate salt)
Type: in vivo
Details: both sexes, Beagle, dog, whole blood; po 12 mg/kg
Experimental readout: half-life (h)

molecule="CC(C)C[C@@H]1NCCN([C@@H](CC(C)C)C(=O)N2CCC3(C[C@@H]2C)OCC(CN2CCCC2)CO3)C1=O (stereo partly shown) [Compound 1]" value_observed=3.3

###

Assay: 28-day once weekly oral repeated-dose DRF study in cynomolgus monkeys (mesylate salt)
Format: in vivo
Details: male, cynomolgus monkey, whole blood, po, 30 mg/kg, M, Day 1
Description: The objective of the study was to determine the TK profile of Compound 1 following 4 weekly oral administrations to cynomolgus monkeys and to assess reversibility of any changes following a 13-day recovery period. Male and female cynomolgus monkeys (n=1/sex/group) were orally administered Compound 1 (mesylate salt) at dose levels of 30, 45, 60, or 90 mg/kg/administration for 4 consecutive doses on study days 1, 8, 15, and 22. The vehicle was 0.5% (w/v) methyl cellulose 400 in sterile water. […]
Experimental readout: half-life (h)

compound="CC(C)C[C@@H]1NCCN([C@@H](CC(C)C)C(=O)N2CCC3(C[C@@H]2C)OCC(CN2CCCC2)CO3)C1=O (stereo partly shown)" experimental_readout=half-life value_observed=4.9

###

Assay: 28-day once weekly oral repeated-dose DRF TK study in Beagle dogs (mesylate salt), plasma
Assay type: in vivo
Conditions: both sexes, Beagle, dog, plasma, po, 20 mg/kg, Day 1
Experimental readout: Cmax (ng/mL)

molecule="CC(C)C[C@@H]1NCCN([C@@H](CC(C)C)C(=O)N2CCC3(C[C@@H]2C)OCC(CN2CCCC2)CO3)C1=O (stereo partly shown)" value_observed=994

###

Assay: Single dose oral and intravenous PK in CD-1 mice (mesylate salt), blood
Type: in vivo
Set-up: unit not given here
Settings: male, CD-1, mouse, whole blood; oral 5 mg/kg
Experimental readout: AUC(0-t)

molecule="CC(C)C[C@@H]1NCCN([C@@H](CC(C)C)C(=O)N2CCC3(C[C@@H]2C)OCC(CN2CCCC2)CO3)C1=O (stereo partly shown) [Compound 1]" value_observed=0.179
